# Tested on: 3D human liver microtissues (hLiMT)
# assaySummary: Cytotoxicity (cellular ATP, CellTiter-Glo 2.0) in 3D human liver microtissues, 14 day repeat-dose treatment
# testSettings: Homo sapiens, Hepatocyte, 336 h, read-out: Geomean IC50 [µM]
Recorded IC50, one value per entry.

Below are worked cases with known answers.
O=P1(N(CCCl)CCCl)NCCCO1 (stereo not shown) [Cyclophosphamide] :: > 2000 µM
CC(C)c1nc(N(C)S(C)(=O)=O)nc(-c2ccc(F)cc2)c1/C=C/[C@@H](O)C[C@@H](O)CC(=O)O :: 7.8 µM
CCC(C)n1ncn(-c2ccc(N3CCN(c4ccc(OCC5COC(Cn6cncn6)(c6ccc(Cl)cc6Cl)O5)cc4)CC3)cc2)c1=O (stereo not shown) :: 1.6 µM
CS(=O)(=O)CCNCc1ccc(-c2ccc3ncnc(Nc4ccc(OCc5cccc(F)c5)c(Cl)c4)c3c2)o1 :: ~27.3 µM
CC(=O)Oc1ccccc1C(=O)O :: > 1000 µM
CNC1(C)C2CCC(C2)C1(C)C (stereo not shown) :: > 25 µM
N[C@@H]1[C@H]2CN(c3nc4c(cc3F)c(=O)c(C(=O)O)cn4-c3ccc(F)cc3F)C[C@@H]12 :: > 125 µM
CCc1oc2ccccc2c1C(=O)c1cc(Br)c(O)c(Br)c1 :: 11.8 µM
[H]/N=C(/N)N/C(=N/[H])NCCc1ccccc1 :: < 12.5 µM
NC(=O)N1c2ccccc2C=Cc2ccccc21 [Carbamazepine] :: 267 µM

Given NC(=O)OCC(COC(N)=O)c1ccccc1 [Felbamate] , state its recorded IC50.
> 100 µM

Given `O=C(O)COc1ccc(C(=O)c2cccs2)c(Cl)c1Cl` , state its recorded IC50.
567 µM

Given `C[C@H]1COc2c(N3CCN(C)CC3)c(F)cc3c(=O)c(C(=O)O)cn1c23` , state its recorded IC50.
> 320 µM

Given `CC1(C)S[C@@H]2[C@H](NC(=O)COc3ccccc3)C(=O)N2[C@H]1C(=O)O` , state its recorded IC50.
> 100 µM

Given `Nc1c2c(nc3ccccc13)CCCC2` , state its recorded IC50.
~69.6 µM

Given `N[C@@H]1CON=C1O` , state its recorded IC50.
7460 µM

Given Cc1ccc(Cl)c(Nc2ccccc2C(=O)O)c1Cl [Meclofenamate] , state its recorded IC50.
~23.1 µM

Given `CN(C)CCCN1c2ccccc2Sc2ccc(Cl)cc21` , state its recorded IC50.
~7.4 µM

Given `COc1ccccc1Oc1c(NS(=O)(=O)c2ccc(C(C)(C)C)cc2)nc(-c2ncccn2)nc1OCCO` , state its recorded IC50.
~93 µM
